Source listed as patent US20250136718A1.

Molecular target: T1, human ecto-TMPRSS6-FLAG (UniProt Q8IU80 77-811)
T1 chain: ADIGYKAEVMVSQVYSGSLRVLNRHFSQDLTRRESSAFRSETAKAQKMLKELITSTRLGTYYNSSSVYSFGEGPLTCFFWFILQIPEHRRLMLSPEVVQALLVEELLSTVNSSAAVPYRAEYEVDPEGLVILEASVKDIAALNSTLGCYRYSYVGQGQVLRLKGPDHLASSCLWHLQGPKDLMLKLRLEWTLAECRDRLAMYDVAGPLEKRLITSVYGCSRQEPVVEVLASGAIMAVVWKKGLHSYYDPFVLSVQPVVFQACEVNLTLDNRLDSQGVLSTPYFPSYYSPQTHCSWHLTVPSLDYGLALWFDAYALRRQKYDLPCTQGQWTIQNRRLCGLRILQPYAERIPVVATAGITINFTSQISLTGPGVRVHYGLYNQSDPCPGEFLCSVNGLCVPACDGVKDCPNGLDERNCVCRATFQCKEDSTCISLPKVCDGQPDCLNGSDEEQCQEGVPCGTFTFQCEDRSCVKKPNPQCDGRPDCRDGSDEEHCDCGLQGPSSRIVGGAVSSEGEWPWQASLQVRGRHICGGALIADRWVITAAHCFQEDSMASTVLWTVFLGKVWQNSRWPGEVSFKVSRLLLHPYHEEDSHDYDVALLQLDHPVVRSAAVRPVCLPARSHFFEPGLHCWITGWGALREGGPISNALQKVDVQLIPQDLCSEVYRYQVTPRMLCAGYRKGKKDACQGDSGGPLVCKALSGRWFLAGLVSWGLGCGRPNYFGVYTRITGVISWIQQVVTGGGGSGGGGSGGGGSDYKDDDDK
Test: BLI (Octet)
// reported log10 of Kd for each item listed
RESULT_TYPE: log10 of Kd (log10 of the value in nM)

[
  {
    "BINDER": "MWTx-003 anti-TMPRSS6 monoclonal antibody (antibody, mouse IgG2b, kappa, V domains shown, Mouse monoclonal antibody from hybridoma (ATCC PTA-126761); The recombinant version r4K12B has the same HC and LC; also called r4K12B; recombinant MWTx-003) VH: EVQLQQSGAELVKPGASVKLSCTASGFNIEDYYIHWVKERTEQGLEWIGRIDPEDGETTYAPQFQGKATIIPDTSSNTAYMQLSSLTSEDAAVYYCARSIYLDPMDYWGQGTSVTVSS VL: DIVMTQSHKFMSTSVGDRVSITCKASQDVTTAVAWYQQKPGQSPKILIYWATTRHTGVPDRFTGSISGTTYILTISSVQAEDLALYYCQQHYSTPYTFGGGTKLEIKR",
    "log10 of Kd": 0.81
  },
  {
    "BINDER": "humanized anti-TMPRSS6 antibody variant hzMWTx-001 Var (antibody, human IgG1, kappa, N297A, V domains shown, Human IgG1 / kappa) VH: EVQLVQSGAEVKKPGASVKVSCKASGYTFTSYWITWVRQAPGQRLEWIGNIYPGSGSTYYNEKFKSKATITRDTSSRTAYMELSSLRSEDTAVYYCAPYDADYAMDYWGQGTLVTVSS VL: DIQMTQSPSSLSASVGDRVTITCKASQDISNYLSWFQQKPGKAPKLLIYRANRLVEGVPSRFSGSGSGTDFTLTISSLQPEDFATYFCLQYDEFPLTFGGGTKVEIKR",
    "log10 of Kd": 0.53
  },
  {
    "BINDER": "humanized anti-TMPRSS6 antibody variant hzMWTx-003 Var (antibody, human IgG1, kappa, L234A L235A, V domains shown, Human IgG1 / kappa) VH: QVQLVQSGAEVKKPGASVKVSCKASGFNIEDYYMHWVRQAPGQRLEWMGRIDPEDAETTYSPKFQGRVTIIPDTSANTAYMELSSLRSEDTAVYYCARSIYLDPMDYWGQGTLVTVSS VL: DIQMTQSPKSLSASVGDRVTITCRASQDVTTALAWYQQKPGQSPKLLIYWATTRHSGVPSRFSGSGSGTDFTLTISSLQPEDFATYYCQQHYSTPYTFGQGTKLEIKR",
    "log10 of Kd": 1.14
  },
  {
    "BINDER": "MWTx-002 anti-TMPRSS6 monoclonal antibody (antibody, mouse IgG2b, kappa, V domains shown, Mouse monoclonal antibody from hybridoma (ATCC PTA-126760)) VH: EVQLQQSGAELVKPGASVKLSCTASGFNIKDYYIHWVKERTEQGLEWFGRIDPEDGESEYAPKFQGKATLTADTSSNTAYLQLSSLTSEDTAVYYCTRGDSMMVTYFDYWGQGTTLTVSS VL: DIVMTQSHKFMSTSVGDRVSITCKASQDVSTAVAWYQQKPGQSPKLLIYWAFTRHTGVPDRFTSTGSGTDYALTISSVQAEDLALYYCQQHYRSPWTFGGGTKLEIKR",
    "log10 of Kd": -0.09
  },
  {
    "BINDER": "humanized anti-TMPRSS6 antibody variant hzMWTx-002 Var (antibody, human IgG1, kappa, N297A, V domains shown, Human IgG1 / kappa) VH: EVQLVQSGAEVKKPGASVKVSCKASGFNIKDYYIHWVRQATGQGLEWMGRIDPEDAESEYAPKFQGRVTITADTSTDTAYMELSSLRSEDTAVYYCTRGDSMMVTYFDYWGQGTLVTVSS VL: DIQMTQSPSSLSASVGDRVTITCKASQDVSTAVAWYQQKPGKAPKLLIYWAFTRHTGVPSRFSGSGSGTDYALTISSLQPEDFATYYCQQHYRSPWTFGGGTKVEIKR",
    "log10 of Kd": 1.26
  },
  {
    "BINDER": "MWTx-001 anti-TMPRSS6 monoclonal antibody (antibody, mouse IgG2a, kappa, V domains shown, Mouse monoclonal antibody from hybridoma (ATCC PTA-126759)) VH: QVQLQQPGAELAKPGASVKMSCKASGYTFTSYWITWVKQRPGQDLEWIGNIYPGSGSTYYNEKFKSKATLTVDTSSRTAYMQLSSLTSADSAVYYCAPYDSDYAMDYWGQGTSVTVSS VL: DIKMTQSPSSMYASLGERVTITCKASQDINNYLSWFQQKPGKSPKTLIYRANRLVDGVPSRVSGSGSGQDYSLTISSLEYEDVGIYFCLQYDEFPLTFGAGTKLELKR",
    "log10 of Kd": -0.18
  }
]
